Could you please report measured AUC for the items listed next?
experiment: Pharmacokinetics of ginsenosides after single oral RGE with or without amoxicillin treatment; type: in vivo, mice; settings: Control; single oral RGE 2 g/kg; plasma; AUC 0 to 48 h; n = 3
Output spec: scalar in ng·h/mL, unitless text.

Recorded AUC of CC(C)=CCC[C@](C)(O[C@@H]1O[C@H](CO)[C@@H](O)[C@H](O)[C@H]1O)[C@H]1CC[C@]2(C)[C@@H]1[C@H](O)C[C@@H]1[C@@]3(C)CC[C@H](O[C@@H]4O[C@H](CO)[C@@H](O)[C@H](O)[C@H]4O[C@@H]4O[C@H](CO)[C@@H](O)[C@H](O)[C@H]4O)C(C)(C)[C@@H]3CC[C@]12C , please.
278.8

Recorded AUC of CC(C)=CCC[C@](C)(O[C@@H]1O[C@H](CO[C@@H]2O[C@@H](CO)[C@H](O)[C@H]2O)[C@@H](O)[C@H](O)[C@H]1O)[C@H]1CC[C@]2(C)[C@@H]1[C@H](O)C[C@@H]1[C@@]3(C)CC[C@H](O[C@@H]4O[C@H](CO)[C@@H](O)[C@H](O)[C@H]4O[C@@H]4O[C@H](CO)[C@@H](O)[C@H](O)[C@H]4O)C(C)(C)[C@@H]3CC[C@]12C , please.
508.6

Recorded AUC of CC(C)=CCC[C@](C)(O[C@@H]1O[C@H](CO[C@@H]2OC[C@H](O)[C@H](O)[C@H]2O)[C@@H](O)[C@H](O)[C@H]1O)[C@H]1CC[C@]2(C)[C@@H]1[C@H](O)C[C@@H]1[C@@]3(C)CC[C@H](O[C@@H]4O[C@H](CO)[C@@H](O)[C@H](O)[C@H]4O[C@@H]4O[C@H](CO)[C@@H](O)[C@H](O)[C@H]4O)C(C)(C)[C@@H]3CC[C@]12C , please.
361.4

====

test system: lactic acid bacteria (LAB); test: In vitro RGE fermentation with LAB; details: 7 days incubation
Observation Type: Alteration of ginsenoside by fermentation of RGE with LAB

CC(C)=CCC[C@](C)(O)[C@H]1CC[C@]2(C)[C@@H]1[C@H](O)C[C@@H]1[C@@]3(C)CC[C@H](O)C(C)(C)[C@@H]3[C@@H](O[C@@H]3O[C@H](CO)[C@@H](O)[C@H](O)[C@H]3O[C@@H]3O[C@H](CO)[C@@H](O)[C@H](O)[C@H]3O)C[C@]12C : gradual decrease
CC(C)=CCC[C@](C)(O[C@@H]1O[C@H](CO)[C@@H](O)[C@H](O)[C@H]1O)[C@H]1CC[C@]2(C)[C@@H]1[C@H](O)C[C@@H]1[C@@]3(C)CC[C@H](O)C(C)(C)[C@@H]3CC[C@]12C [CK, 20(S)-compound K] : significantly increased
CC(C)=CCC[C@](C)(O[C@@H]1O[C@H](CO)[C@@H](O)[C@H](O)[C@H]1O)[C@H]1CC[C@]2(C)[C@@H]1[C@H](O)C[C@@H]1[C@@]3(C)CC[C@H](O)C(C)(C)[C@@H]3[C@@H](O[C@@H]3O[C@H](CO)[C@@H](O)[C@H](O)[C@H]3O)C[C@]12C : gradual decrease
CC(C)=CCC[C@](C)(O)[C@H]1CC[C@]2(C)[C@@H]1[C@H](O)C[C@@H]1[C@@]3(C)CC[C@H](O)C(C)(C)[C@@H]3[C@@H](O)C[C@]12C [PPT, 20(S)-protopanaxatriol] : significantly increased

Recorded Alteration of ginsenoside by fermentation of RGE with LAB of CC(C)=CCC[C@](C)(O[C@@H]1O[C@H](CO)[C@@H](O)[C@H](O)[C@H]1O)[C@H]1CC[C@]2(C)[C@@H]1[C@H](O)C[C@@H]1[C@@]3(C)CC[C@H](O[C@@H]4O[C@H](CO)[C@@H](O)[C@H](O)[C@H]4O)C(C)(C)[C@@H]3CC[C@]12C , please.
gradual decrease

====

test: Pharmacokinetics of ginsenosides after single oral RGE after amoxicillin with or without repeated LAB treatment; settings: Amoxicillin + LAB; single oral RGE 2 g/kg
Observation Type: MRT (h)
Output spec: scalar in h, unitless text.

Recorded MRT of CC(C)=CCC[C@](C)(O)[C@H]1CC[C@]2(C)[C@@H]1[C@H](O)C[C@@H]1[C@@]3(C)CC[C@H](O[C@@H]4O[C@H](CO)[C@@H](O)[C@H](O)[C@H]4O[C@@H]4O[C@H](CO)[C@@H](O)[C@H](O)[C@H]4O)C(C)(C)[C@@H]3CC[C@]12C , please.
3.5

Recorded MRT of CC(C)=CCC[C@](C)(O[C@@H]1O[C@H](CO)[C@@H](O)[C@H](O)[C@H]1O)[C@H]1CC[C@]2(C)[C@@H]1[C@H](O)C[C@@H]1[C@@]3(C)CC[C@H](O)C(C)(C)[C@@H]3CC[C@]12C [CK, 20(S)-compound K] , please.
13.7

Recorded MRT of CC(C)=CCC[C@](C)(O[C@@H]1O[C@H](CO[C@@H]2OC[C@H](O)[C@H](O)[C@H]2O)[C@@H](O)[C@H](O)[C@H]1O)[C@H]1CC[C@]2(C)[C@@H]1[C@H](O)C[C@@H]1[C@@]3(C)CC[C@H](O[C@@H]4O[C@H](CO)[C@@H](O)[C@H](O)[C@H]4O[C@@H]4O[C@H](CO)[C@@H](O)[C@H](O)[C@H]4O)C(C)(C)[C@@H]3CC[C@]12C , please.
18.1
